target: Voltage-gated potassium channel subunit beta-2 (Rattus norvegicus); assay: KvBeta enzyme negative modulators, primary screen, biochemical, NADPH fluorescence (AID 622); conditions: recombinant KvBeta, 4-cyanobenzaldehyde reduction, at 10 µM, stronger effect = higher value;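 also: slope of raw intensity against log time taken from 70 to 1610 s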
property: fluorescence slope

[
  {
    "inputSmiles": "c1cncc(-c2nnc3n2N=C(c2cccs2)CS3)c1",
    "property": "fluorescence slope",
    "valueReported": -0.331
  },
  {
    "inputSmiles": "CCOC(=O)c1[nH]c2ccc(F)cc2c1N=C(C)N(CC)CC",
    "property": "fluorescence slope",
    "valueReported": -0.497
  },
  {
    "inputSmiles": "NC(=O)c1ccccc1NC(=O)CN1CCOCC1",
    "property": "fluorescence slope",
    "valueReported": -0.492
  },
  {
    "inputSmiles": "CCSc1oc(-c2cccs2)nc1S(=O)(=O)c1ccccc1",
    "property": "fluorescence slope",
    "valueReported": -0.56
  },
  {
    "inputSmiles": "COc1ccc2c(c1)c(C(=O)CN1CCOCC1)c(C)n2C",
    "property": "fluorescence slope",
    "valueReported": -0.48
  },
  {
    "inputSmiles": "CCCn1c(SCC(=O)Nc2ccccc2C(=O)OCC)nc2c1c(=O)n(C)c(=O)n2C",
    "property": "fluorescence slope",
    "valueReported": -0.402
  }
]

----------
assay: inhibitors of TNFa-induced NFkB p65 translocation, primary screen, imaging, HUVEC, MLSMR starter and 10KST1 sets (AID 438); conditions: HUVEC TNFa-induced p65 nuclear translocation; measured here: nuclei count (cytotoxicity indicator), at 2.08 µM;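 also: compound added about 3h40 before a 20 min TNFalpha stimulation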

[
  {
    "compound": "CCOC(=O)c1[nH]c2ccc(OC)cc2c1NC(=O)CCN1CCc2ccccc2C1",
    "cell count": 515
  },
  {
    "compound": "O=C(CCS(=O)(=O)c1cccc2nonc12)Nc1cccc2c1CCCC2",
    "cell count": 500
  },
  {
    "compound": "Fc1ccc2[nH]c3c(N4CCSCC4)ncnc3c2c1",
    "cell count": 664
  },
  {
    "compound": "CCOC(=O)C(C)Sc1nnc(Cc2cc(=O)[nH]c(=O)[nH]2)n1-c1ccc(Cl)cc1 (configuration not stated)",
    "cell count": 817
  },
  {
    "compound": "CCOc1ccc(OCc2cccc(C(=O)N3CCCC3)c2)cc1",
    "cell count": 488
  },
  {
    "compound": "CCn1c(SCC(=O)C(C)(C)C)nnc1-c1cnccn1",
    "cell count": 581
  },
  {
    "compound": "Cc1nnc(N2C(=O)C(O)=C(C(=O)c3ccco3)C2c2ccc(F)cc2)s1 (configuration not stated)",
    "cell count": 881
  },
  {
    "compound": "O=C(CN1C2=NCCN2c2ccccc21)N1CCOCC1",
    "cell count": 629
  },
  {
    "compound": "Cc1ccc(CCNC(=O)C2CCC(=O)N2C2CCCC2)cc1 (configuration not stated)",
    "cell count": 703
  },
  {
    "compound": "CCSc1cc(C2C(C(=O)OC)=C(C)NC3=C2C(=O)CCC3)c(C)o1 (configuration not stated)",
    "cell count": 737
  },
  {
    "compound": "COc1ccc(OC)c(C2C(C(=O)Nc3ccc(F)cc3)=C(C)Nc3nc(CCCO)nn32)c1 (configuration not stated)",
    "cell count": 666
  },
  {
    "compound": "Nc1c2c(nc3ccccc13)N(C1CCCCC1)CC2",
    "cell count": 670
  },
  {
    "compound": "COC(=O)C(NC(=O)c1ccccc1)(Nc1nc(C)cs1)C(F)(F)F (configuration not stated)",
    "cell count": 687
  },
  {
    "compound": "COc1ccc(/C(O)=C2/C(=O)C(=O)N(CCCN(C)C)C2c2ccc(Cl)cc2)cc1OC (configuration not stated)",
    "cell count": 332
  },
  {
    "compound": "O=C(c1cnc2n(c1=O)CCS2)N1CCc2ccccc21",
    "cell count": 529
  },
  {
    "compound": "COC(=O)C(NC(C)=O)(Nc1ccc(Br)cn1)C(F)(F)F (configuration not stated)",
    "cell count": 555
  },
  {
    "compound": "O=C(COc1ccc(-c2nnc(N3CCCCC3)c3ccccc23)cc1)N1CCCCC1",
    "cell count": 373
  },
  {
    "compound": "C(=N\\c1c(-c2ccccc2)nc2n1CCS2)/c1ccccc1",
    "cell count": 594
  },
  {
    "compound": "COc1ccccc1-c1nnc(SCC(=O)NC2CCCCC2)o1",
    "cell count": 490
  },
  {
    "compound": "COc1ccc(CSc2nnc3n(C)c(=O)c4c5c(sc4n23)CCCC5)cc1",
    "cell count": 563
  },
  {
    "compound": "O=C(O)c1ccccc1S(=O)(=O)NCC(O)COc1ccc(Br)cc1 (configuration not stated)",
    "cell count": 435
  },
  {
    "compound": "O=C(NC1CCCCC1)C(c1ccccc1)N(Cc1ccco1)C(=O)Cn1cnc2ccccc21 (configuration not stated)",
    "cell count": 375
  }
]

----------
# z-score listing for each entry below
experiment: DUSP6 inhibitors restoring Erk phosphorylation by chemical complementation, primary imaging in DUSP6-transfected HeLa (AID 609); conditions: HeLa MKP-3 transfected, phospho-Erk imaging KS statistic; measured here: nuclear pErk red intensity z-score; at 10 µM; stronger effect = higher value; cells stimulated with TPA for 15 min

[
  {
    "compound": "COC(=O)C1CCN(c2nc3ccccc3nc2C(C#N)C(=O)NCCc2ccccc2)CC1 (centres undefined)",
    "z-score": -0.225
  },
  {
    "compound": "COC(=O)c1cc(Br)c(=O)n(-c2cc(C)on2)c1",
    "z-score": 0.836
  },
  {
    "compound": "C/C(=N/n1cnnc1)c1cccnc1",
    "z-score": -1.29
  },
  {
    "compound": "O=c1c2sc3nc(N4CCOCC4)c4c(c3c2ncn1Cc1ccco1)CCCC4",
    "z-score": 0.589
  },
  {
    "compound": "COc1cc(S(=O)(=O)N2CCN(c3ccc(F)cc3)CC2)ccc1Cl",
    "z-score": 0.956
  },
  {
    "compound": "C=CCn1c(N)c(C(=O)Nc2ccccc2)c2nc3ccccc3nc21",
    "z-score": -0.334
  },
  {
    "compound": "CC(=O)Oc1ccc2c(C)cc(=O)[nH]c2c1",
    "z-score": 0.878
  },
  {
    "compound": "COc1cc(C)nc(Nc2nc(C)c(C(C)=O)s2)n1",
    "z-score": -0.786
  },
  {
    "compound": "CCNc1sc(C(=O)c2cccs2)c(N)c1C#N",
    "z-score": 0.076
  },
  {
    "compound": "CCc1ccc(NC(=O)CSC2=C(C#N)C(c3ccc4c(c3)OCO4)CC(=O)N2)cc1 (centres undefined)",
    "z-score": -0.214
  },
  {
    "compound": "O=C1C(=O)N(CCCn2ccnc2)C(c2ccccn2)/C1=C(/O)c1ccccc1 (centres undefined)",
    "z-score": 0.494
  },
  {
    "compound": "Cn1c(Cl)nc2c1c(=O)n(Cc1cccc(Br)c1)c(=O)n2C",
    "z-score": 0.815
  },
  {
    "compound": "CCc1cc(=O)oc2cc(C)c(CN3CCCCC3)c(O)c12",
    "z-score": 1.01
  },
  {
    "compound": "CC1(C)Cc2nc3sc4c(N(CCO)CCO)ncnc4c3cc2CO1",
    "z-score": 1.17
  },
  {
    "compound": "Cn1ncc(N=Cc2ccccc2O)c1C(=O)N1CCOCC1",
    "z-score": 0.451
  },
  {
    "compound": "O=C(O)C1[C@H]2C(=O)N(Cc3cccs3)C[C@]23C=C[C@H]1O3 (some centres undefined)",
    "z-score": -0.313
  },
  {
    "compound": "C[n+]1cccc(CNC(=O)/C=N/O)c1",
    "z-score": 0.751
  },
  {
    "compound": "Cc1ccc(-c2nn(C)c(=O)c3ccccc23)cc1CNC(=O)CSc1nc2ccccc2o1",
    "z-score": 0.619
  },
  {
    "compound": "OCCN=C(c1ccccc1)C12CN3CN(CN(C3)C1)C2",
    "z-score": 0.262
  },
  {
    "compound": "C=CCn1c(=N)c(C(=O)OCC)cc2c(=O)n3cccc(C)c3nc21",
    "z-score": 1.9
  },
  {
    "compound": "C=CCNc1nc(C)nc(OC)n1",
    "z-score": 1.07
  },
  {
    "compound": "Cc1sc(-n2c(C)ccc2C)c(C#N)c1C",
    "z-score": 1.07
  },
  {
    "compound": "c1ccc2c(c1)[nH]c1c(N3CCSCC3)ncnc12",
    "z-score": -0.889
  },
  {
    "compound": "CCOC(=O)C(C(=O)OCC)N(C#N)c1nc(SC)nc(N(C)C)n1",
    "z-score": 4.3
  }
]
